Data origin, for the record: patent US9540323B2

System: human platelet rich plasma (PRP)
Experiment: ADP induced platelet aggregation assay
Conditions: Homo sapiens, Platelet, 5 min, read-out: PA IC50 (μM) @ 10 μM ADP, human PRP, 10 μM ADP, AUC at 5 minute
Observed Property: IC50 (µM)
// units = µM; emit number, no label

Find IC50 (human platelet rich plasma (PRP)) for the entry CC(C)(C)CN1CCCC1c1ccc(NC(=O)Nc2ccccc2N2CC(C)(C)c3c(-c4ccc(F)cc4)ccc(O)c32)cc1 (stereo not shown)
0.09

Would you kindly repeat that for "Cc1cnc2oc(-c3ccc(O)c4c3C(C)(C)CN4c3ccccc3NC(=O)Nc3ccc(OC(F)(F)F)cc3)nc2c1" ?
0.97

Would you kindly repeat that for CC1(C)CN(c2ccccc2NC(=O)Nc2ccc(OC(F)(F)F)cc2)c2c(O)ccc(C3=NC(C(C)(C)C)CO3)c21 (stereo not shown) ?
0.46

Would you kindly repeat that for "CC1(C)CN(c2ccccc2NC(=O)Nc2ccc(OC(F)(F)F)cc2)c2c(O)ccc(-c3nccs3)c21" ?
0.82
